- Tested on: MCF7 breast
- assay.protocol: NCI-60 one-dose screen, 48 h (100 = growth as untreated, 0 = no growth, -100 = all killed)
- test.conditions: 10 µM
Compounds without any hit were thinned out: in the full panel of roughly 83,000, 20% have a hit.
For each record, write down the corresponding growth.
Answers are plain numbers, in %.

For each entry beneath this line, provide reported growth.
1. CC[C@@]1(O)C[C@H](OC2CC(N(C)C)C(O)C(C)O2)c2c(O)c3c(c(O)c2[C@H]1OC1CC(N(C)C)C(O)C(C)O1)C(=O)c1cccc(O)c1C3=O (stereo partly specified)
2. COc1ccc(OC)c(/C=C/[N+](=O)[O-])c1
3. CO[C@H](/C(C)=C/C=C/C(C)=C/c1coc(C)n1)[C@H](C)[C@H]1C[C@@H](O)[C@@]2(C)O[C@H]2/C=C/[C@@H](C)[C@@H]2C[C@@H](CC(=O)O2)C[C@H]2O[C@@H]2C(=O)O1
4. C[C@]12CC[C@H](O)CC1=CC[C@@H]1[C@@H]2CC[C@]2(C)C(=O)CC[C@@H]12
5. Cc1ccc(C(=O)OC(C(=O)O)C(OC(=O)c2ccc(C)cc2)C(=O)O)cc1 (stereo unspecified) (tested in a mixture with another compound)
6. CC[C@@]1(O)C[C@H](OC2CC(N(C)C)C(OC3CC(O)C(OC4CCC(=O)C(C)O4)C(C)O3)C(C)O2)c2c(cc3c(c2O)C(=O)c2c(O)ccc(O)c2C3=O)[C@H]1C(=O)OC (stereo partly specified)

[-8.26, -1.64, 14.7, 130, 14.3, 0.371]

* * *

- Test system: MDA-MB-435 melanoma
- assay.protocol: NCI-60 one-dose screen, 48 h (100 = growth as untreated, 0 = no growth, -100 = all killed)
- test.conditions: 10 µM unless noted
This is part of a sample that, as a whole, favours compounds with a hit. Of some 83,000 tested, about 20% had one in any assay.
For each record, write down the corresponding growth.
Give bare numbers, in %.

compound | data.value
Cc1ccc(C(=O)OC(C(=O)O)C(OC(=O)c2ccc(C)cc2)C(=O)O)cc1 (centres undefined) (tested in a mixture with another compound) | 51.3

For each entry beneath this line, provide reported growth.
1. COC1=C(C)C(=O)C2=C(C1=O)C(CO)N1C(C#N)C3CC4C(C1C2N1CCOC41)N3C (centres undefined)
2. COC1CC(CC2CCC(C)C(C(C)C(=O)O)O2)OC2(OC(C)(C3CCC(C)(C4OC(C5OC(O)(CO)C(C)CC5C)CC4C)O3)CC2C)C1C (centres undefined)
3. CC1=C(CO)C2=C(C)C3(CC3)[C@@](C)(O)C(=O)C2=C1

[-64.2, -91.7, 10.7]
